# Test system: Mus musculus
# protocolSummary: In vivo activity against mice infected with murine p388 lymphocytic leukemia cells at a ip dose of 0.05 mg/kg
# Assay type: functional
# studyConditions: route intraperitoneal
# key: entry, value: ILS at 0.05 mg/kg

C=C(C)C12OC3(c4ccccc4)OC1[C@@H]1[C@@H]4O[C@]4(CO)[C@@H](O)[C@]4(O)C(=O)C(C)=C[C@H]4C1(O3)[C@H](C)[C@H]2OC(=O)/C=C/C=C/C=C/CCC (stereo not given in full) [GNIDITRIN]	44%

Query: Can you look up the measured ILS at 0.05 mg/kg of CC(C)C12OC3(c4ccccc4)OC1[C@@H]1[C@@H]4O[C@]4(CO)[C@@H](O)[C@]4(O)C(=O)CC[C@@]4(C)C1(O3)[C@H](C)[C@H]2OC(=O)CCc1ccccc1 (stereo not given in full) for me?
Reply: < 20%

Query: Now this one: CCCCCCCCCC(=O)O[C@@H]1[C@@H](C)C23OC4(c5ccccc5)OC([C@@H]2[C@@H]2O[C@]2(CO)[C@@H](O)[C@]2(O)C(=O)C=C[C@@]32C)C1(C(C)C)O4 (stereo not given in full)
Reply: < 20%

Query: Moving on to C=C(C)C12OC3(c4ccccc4)OC1[C@@H]1[C@@H]4O[C@]4(CO)[C@@H](O)[C@]4(O)C(=O)C=C[C@@]4(C)C1(O3)[C@H](C)[C@H]2OC(=O)CCCCCCCCC (stereo not given in full)
Reply: < 20%

Query: How about this molecule: CC(C)C12OC3(c4ccccc4)OC1[C@@H]1[C@@H]4O[C@]4(CO)[C@@H](O)[C@]4(O)C(=O)CC[C@@]4(C)C1(O3)[C@H](C)[C@H]2OC(=O)CCCCc1ccccc1 (stereo not given in full)
Reply: < 20%

Query: Another molecule: CC(C)C12OC3(c4ccccc4)OC1[C@@H]1[C@@H]4O[C@]4(CO)[C@@H](O)[C@]4(O)C(=O)C=C[C@@]4(C)C1(O3)[C@H](C)[C@H]2OC(=O)CCCCc1ccccc1 (stereo not given in full)
Reply: < 20%

* * *

# ILS at 0.05 mg/kg values compiled below
# System: Mus musculus
# protocolSummary: In vivo activity against mice infected with murine p388 lymphocytic leukemia cells at a ip dose of 0.05 mg/kg
# Type: functional
# studyConditions: route intraperitoneal

Query: Given the compound C=C(C)C12OC3(c4ccccc4)OC1[C@@H]1[C@@H]4O[C@]4(CO)[C@@H](O)[C@]4(O)C(=O)C=C[C@@]4(C)C1(O3)[C@H](C)[C@H]2OC(=O)/C=C/C=C/c1ccccc1 (stereo partly drawn) , what is its reported ILS at 0.05 mg/kg?
Reply: 33%

Query: Next up: C=C(C)C12OC3(c4ccccc4)OC1[C@@H]1[C@@H]4O[C@]4(CO)[C@@H](O)[C@]4(O)C(=O)C=C[C@@]4(C)C1(O3)[C@H](C)[C@H]2OC(=O)c1ccccc1 (stereo partly drawn)
Reply: < 20%

Query: Thanks! And CC(C)C12OC3(c4ccccc4)OC1[C@@H]1[C@@H]4O[C@]4(CO)[C@@H](O)[C@]4(O)C(=O)C=C[C@@]4(C)C1(O3)[C@H](C)[C@H]2OC(=O)c1ccccc1 (stereo partly drawn) ?
Reply: < 20%

* * *

# Test system: Mus musculus
# protocolSummary: In vivo activity against mice infected with murine p388 lymphocytic leukemia cells at a ip dose of 0.05 mg/kg
# Assay type: functional
# studyConditions: route intraperitoneal
Measured ILS at 0.05 mg/kg accompanies every entry in the list below.

Below are worked cases with known answers.
C=C(C)C12OC3(c4ccccc4)OC1[C@@H]1[C@@H]4O[C@]4(CO)[C@@H](O)[C@]4(O)C(=O)C=C[C@@]4(C)C1(O3)[C@H](C)[C@H]2OC(=O)/C=C/c1ccccc1 (some centres undefined)	< 20%
CC(C)C12OC3(c4ccccc4)OC1[C@@H]1[C@@H]4O[C@]4(CO)[C@@H](O)[C@]4(O)C(=O)CC[C@@]4(C)C1(O3)[C@H](C)[C@H]2OC(=O)CCCCCCCCc1ccccc1 (some centres undefined)	< 20%

Query: Sample CC(C)C12OC3(c4ccccc4)OC1[C@@H]1[C@@H]4O[C@]4(CO)[C@@H](O)[C@]4(O)C(=O)C=C[C@@]4(C)C1(O3)[C@H](C)[C@H]2OC(=O)CCc1ccccc1 (some centres undefined) — what was its ILS at 0.05 mg/kg?
Reply: < 20%

Query: // next record C=C(C)C12OC3(c4ccccc4)OC1[C@@H]1[C@@H]4O[C@]4(CO)[C@@H](O)[C@]4(O)C(=O)C=C[C@@]4(C)C1(O3)[C@H](C)[C@H]2OC(=O)/C=C/C=C/CCCCC (some centres undefined)
Reply: 33%
